The reader will find reported koff values listed item by item below.
# measured.target: anti-TNFα antibody-Fab (IgG-Fab derived from anti-TNFα monoclonal antibody, adalimumab) (Homo sapiens, UniProt P01834+P01857)
# Construct: cleaving a humanized monoclonal IgG formulation as a starting material into a Fab fragment and an Fc fragment by papain; purchased
# measurement.protocol: Biacore 3000 surface plasmon resonance, affinity of SpG-β1 mutants for immobilized IgG-Fab
# Type: binding
# experimental.parameters: Table 2, Example 3; GST-fused one-domain peptide; 25° C., pH 7.4
Where no end group is shown, it is not given here.
Note: unit s⁻¹ is implicit; provide only the numeric part.

Quick one: koff for K13T/E19I/V21D/T25M/F30L/Y33F/N35F/D47A: GST-fused one-domain SpG-β1 mutant, amino acid SEQ ID NO: 55 (TTYKLILNGKTLTGETTTIADDAAMAEKVLKQFAFDNGVDGEWTYDAATKTFTVTE; also: GST-fused) ?
0.003

Quick one: koff for K13T/E19I/A23T/T25M/F30L: GST-fused one-domain SpG-β1 mutant, amino acid SEQ ID NO: 49 (TTYKLILNGKTLTGETTTIAVDTAMAEKVLKQYANDNGVDGEWTYDDATKTFTVTE; also: GST-fused) ?
0.0091

Quick one: koff for K13T/E19I/K28N/F30L/Y33F: GST-fused one-domain SpG-β1 mutant, amino acid SEQ ID NO: 53 (TTYKLILNGKTLTGETTTIAVDAATAENVLKQFANDNGVDGEWTYDDATKTFTVTE; also: GST-fused) ?
0.0061

Quick one: koff for K13T/E19I/V21D/K28I/F30L/K31R/D47H: GST-fused one-domain SpG-β1 mutant, amino acid SEQ ID NO: 75 (TTYKLILNGKTLTGETTTIADDAATAEIVLRQYANDNGVDGEWTYDHATKTFTVTE; also: GST-fused) ?
0.0068

Quick one: koff for K13T/V21A/F30L/Y33F/D40E: GST-fused one-domain SpG-β1 mutant, amino acid SEQ ID NO: 51 (TTYKLILNGKTLTGETTTEAADAATAEKVLKQFANDNGVEGEWTYDDATKTFTVTE; also: GST-fused) ?
0.0078

----------
The reader will find reported KA values listed item by item below.
# measured.target: anti-TNFα antibody-Fab (IgG-Fab derived from anti-TNFα monoclonal antibody, adalimumab) (Homo sapiens, UniProt P01834+P01857)
# Construct: cleaving a humanized monoclonal IgG formulation as a starting material into a Fab fragment and an Fc fragment by papain; purchased
# measurement.protocol: Biacore 3000 surface plasmon resonance, affinity of SpG-β1 mutants for immobilized IgG-Fab
# Format: binding
# experimental.parameters: Table 2, Example 3; GST-fused one-domain peptide
Where no end group is shown, it is not given here.
Note: unit M⁻¹ is implicit; provide only the numeric part.

>>> number("K13T/E19I/F30L/Y45F/D47Y: GST-fused one-domain SpG-β1 mutant, amino acid SEQ ID NO: 83 (TTYKLILNGKTLTGETTTIAVDAATAEKVLKQYANDNGVDGEWTFDYATKTFTVTE; also: GST-fused)")
"1.39e+06"
>>> number("K13T/E19I/V21D/T25M/F30L/Y33F/N35F/D47A: GST-fused one-domain SpG-β1 mutant, amino acid SEQ ID NO: 55 (TTYKLILNGKTLTGETTTIADDAAMAEKVLKQFAFDNGVDGEWTYDAATKTFTVTE; also: GST-fused)")
"3.47e+06"
>>> number("K13T/E19I/F30L/Y33F/V39I/D47H: GST-fused one-domain SpG-β1 mutant, amino acid SEQ ID NO: 23 (TTYKLILNGKTLTGETTTIAVDAATAEKVLKQFANDNGIDGEWTYDHATKTFTVTE; also: GST-fused)")
"2.06e+06"
>>> number("K13T/V21A/F30L/Y33F/D40E: GST-fused one-domain SpG-β1 mutant, amino acid SEQ ID NO: 51 (TTYKLILNGKTLTGETTTEAADAATAEKVLKQFANDNGVEGEWTYDDATKTFTVTE; also: GST-fused)")
"1.78e+06"
>>> number("K13T/E19I/F30L/D47N: GST-fused one-domain SpG-β1 mutant, amino acid SEQ ID NO: 43 (TTYKLILNGKTLTGETTTIAVDAATAEKVLKQYANDNGVDGEWTYDNATKTFTVTE; also: GST-fused)")
"1.27e+06"

Quick one: KA for K13T/E19I/F30L/Y33F: GST-fused one-domain SpG-β1 mutant, amino acid SEQ ID NO: 47 (TTYKLILNGKTLTGETTTIAVDAATAEKVLKQFANDNGVDGEWTYDDATKTFTVTE; also: GST-fused) ?
1.59e+06

Quick one: KA for K10R/K13T/E15Q/K28R/F30L/D36G/E42V: GST-fused one-domain SpG-β1 mutant, amino acid SEQ ID NO: 69 (TTYKLILNGRTLTGQTTTEAVDAATAERVLKQYANGNGVDGVWTYDDATKTFTVTE; also: GST-fused, end not given here) ?
3.3e+06

Quick one: KA for K13T/E19I/K28R/F30L/Y33F: GST-fused one-domain SpG-β1 mutant, amino acid SEQ ID NO: 27 (TTYKLILNGKTLTGETTTIAVDAATAERVLKQFANDNGVDGEWTYDDATKTFTVTE; also: GST-fused) ?
2.02e+06

----------
The reader will find reported KA values listed item by item below.
# measured.target: anti-TNFα antibody-Fab (IgG-Fab derived from anti-TNFα monoclonal antibody, adalimumab) (Homo sapiens, UniProt P01834+P01857)
# Construct: cleaving a humanized monoclonal IgG formulation as a starting material into a Fab fragment and an Fc fragment by papain; purchased
# measurement.protocol: Biacore 3000 surface plasmon resonance, affinity of SpG-β1 mutants for immobilized IgG-Fab
# Format: binding
# experimental.parameters: Table 2, Example 3; GST-fused one-domain peptide
Where no end group is shown, it is not given here.
A bare number is not enough; add the unit after it.

Example substances with recorded KA:
>>> result("K13S/E19V/F30L/Y33F: GST-fused one-domain SpG-β1 mutant, amino acid SEQ ID NO: 81 (TTYKLILNGKTLSGETTTVAVDAATAEKVLKQFANDNGVDGEWTYDDATKTFTVTE; also: GST-fused, end not given here)")
"1.54e+06 M⁻¹"
>>> result("K13T/E15T/E19I/T25M/E27G/F30L/N35Y: GST-fused one-domain SpG-β1 mutant, amino acid SEQ ID NO: 63 (TTYKLILNGKTLTGTTTTIAVDAAMAGKVLKQYAYDNGVDGEWTYDDATKTFTVTE; also: GST-fused)")
"1.28e+06 M⁻¹"
>>> result("K13T/E19I/D22E/A24T/F30L/Y33F/D47G: GST-fused one-domain SpG-β1 mutant, amino acid SEQ ID NO: 79 (TTYKLILNGKTLTGETTTIAVEATTAEKVLKQFANDNGVDGEWTYDGATKTFTVTE; also: GST-fused)")
"1.32e+06 M⁻¹"

Next, consider the following substance.
Quick one: KA for K13T/E19I/F30L/D47A/K50E: GST-fused one-domain SpG-β1 mutant, amino acid SEQ ID NO: 65 (TTYKLILNGKTLTGETTTIAVDAATAEKVLKQYANDNGVDGEWTYDAATETFTVTE; also: GST-fused) ?
1.14e+06 M⁻¹

----------
# System: anti-Her2antibody-Fab (IgG-Fab derived from anti-Her2 monoclonal antibody, Trastuzumab)
# measurement.protocol: Biacore 3000 surface plasmon resonance, affinity of SpG-β1 mutants for immobilized IgG-Fab
# Format: binding, human
# experimental.parameters: Table 1, Example 2; GST-fused one-domain peptide; KA=kon/koff, 1:1 binding model
Where no end group is shown, it is not given here.
reported.metric: KA (M⁻¹)
Note: unit M⁻¹ is implicit; provide only the numeric part.

Example substances with recorded KA:
>>> number("K13T/E19I/V39I: GST-fused one-domain SpG-β1 mutant, amino acid SEQ ID NO: 19 (TTYKLILNGKTLTGETTTIAVDAATAEKVFKQYANDNGIDGEWTYDDATKTFTVTE; also: GST-fused)")
"2.83e+06"
>>> number("K13T/E19I/F30L: GST-fused one-domain SpG-β1 mutant, amino acid SEQ ID NO: 15 (TTYKLILNGKTLTGETTTIAVDAATAEKVLKQYANDNGVDGEWTYDDATKTFTVTE; also: GST-fused)")
"1.99e+06"
>>> number("K13T/F30L/D36G (TTYKLILNGKTLTGETTTEAVDAATAEKVLKQYANGNGVDGEWTYDDATKTFTVTE)")
"3.17e+06"

Quick one: KA for K10R/K13T/K28Q/F30L/Q32R: GST-fused one-domain SpG-β1 mutant, amino acid SEQ ID NO: 17 (TTYKLILNGRTLTGETTTEAVDAATAEQVLKRYANDNGVDGEWTYDDATKTFTVTE; also: GST-fused, end not given here) ?
1.72e+06

Data origin: patent US10556944B2
